# systemUnderTest: T1, PUF4 RNA-binding domain (Saccharomyces cerevisiae, UniProt P25339 537-888)
# T1 sequence: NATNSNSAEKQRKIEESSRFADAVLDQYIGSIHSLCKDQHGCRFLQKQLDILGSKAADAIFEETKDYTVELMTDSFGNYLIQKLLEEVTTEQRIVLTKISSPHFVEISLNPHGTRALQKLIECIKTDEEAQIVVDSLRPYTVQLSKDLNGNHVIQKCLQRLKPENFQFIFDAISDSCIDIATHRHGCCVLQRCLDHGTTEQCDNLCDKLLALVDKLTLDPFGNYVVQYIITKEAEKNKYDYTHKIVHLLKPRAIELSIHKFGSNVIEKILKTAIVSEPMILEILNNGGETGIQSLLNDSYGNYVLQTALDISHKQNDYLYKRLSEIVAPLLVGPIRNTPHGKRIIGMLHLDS
# experimentalProtocol: Mg; RNA-MaP; 20 mM Na-HEPES pH 7.4, 30 mM KOAc, 0.75 mM MgCl2, 0.1% Tween-20, 5% glycerol, 0.1 mg/mL BSA, 2 mM DTT; 25 C; 0.0125-409.6 nM protein
# testContext: tags: N-His6-TEV cleaved; C-SNAP kept, Cy3B-labelled; label: tethered on chip by stalled RNA polymerase
Collected Kd values appear next to each entry.
I only need the number, in nM, no unit after it.

Task: Please indicate Kd recorded for UCUCUUUCCUGUAAAUAUAUCUCUU (ssRNA) [Id_iii_S1_P3E.8_K3.4_C3.3_[T-1C]_H3.1_A3.2_F3.1_T3.2]
Result: 11.1

Task: Please indicate Kd recorded for UCUCUUUGUAAUCGACUCUCUU (ssRNA) [Ic_S1_P5E.1_K5.1_C5.1_H5.1_A5.1_[T5A]_[A7C]_F5.1_[T8G]_[T9A]_[A10C]_T5.1]
Result: 1540
